Assayed target: Protein O-GlcNAcase (Rattus norvegicus, UniProt Q8VIJ5)
Sequence (Q8VIJ5 whole entry): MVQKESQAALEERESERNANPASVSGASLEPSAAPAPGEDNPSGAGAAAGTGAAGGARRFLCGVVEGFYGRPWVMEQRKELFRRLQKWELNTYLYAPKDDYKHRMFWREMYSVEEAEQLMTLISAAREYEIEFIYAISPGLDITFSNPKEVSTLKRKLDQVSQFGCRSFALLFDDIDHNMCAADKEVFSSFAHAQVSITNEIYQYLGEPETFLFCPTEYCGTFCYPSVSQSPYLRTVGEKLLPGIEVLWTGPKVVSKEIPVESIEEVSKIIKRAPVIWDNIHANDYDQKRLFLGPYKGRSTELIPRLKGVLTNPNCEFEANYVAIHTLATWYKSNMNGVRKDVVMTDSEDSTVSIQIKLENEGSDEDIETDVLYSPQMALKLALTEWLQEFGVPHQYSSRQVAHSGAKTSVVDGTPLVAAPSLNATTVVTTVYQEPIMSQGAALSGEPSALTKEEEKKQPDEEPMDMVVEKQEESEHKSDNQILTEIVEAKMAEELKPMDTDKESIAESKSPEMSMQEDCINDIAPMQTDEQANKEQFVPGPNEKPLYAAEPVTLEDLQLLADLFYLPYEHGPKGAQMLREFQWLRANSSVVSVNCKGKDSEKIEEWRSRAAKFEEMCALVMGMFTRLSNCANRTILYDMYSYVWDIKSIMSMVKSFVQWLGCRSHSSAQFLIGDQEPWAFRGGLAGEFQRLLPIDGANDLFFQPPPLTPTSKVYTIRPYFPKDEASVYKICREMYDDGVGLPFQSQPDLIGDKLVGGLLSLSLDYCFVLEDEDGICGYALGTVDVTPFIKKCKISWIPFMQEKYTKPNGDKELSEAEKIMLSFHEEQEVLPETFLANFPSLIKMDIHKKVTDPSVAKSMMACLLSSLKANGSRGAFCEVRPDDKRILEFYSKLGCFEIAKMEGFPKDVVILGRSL
Protocol details: Inhibition of OGA in rat PC12 cells assessed as OGlcNAcylated protein level incubated for 24 hrs by ELISA
Assay type: cell-based
Quantity measured: EC50 (nM)

# annotated cases, reported EC50 shown
[[record]]
line_notation = "CNC1=N[C@@H]2[C@@H](O)[C@H](O)[C@@H](CF)O[C@@H]2S1"
observed = 34.4

[[record]]
line_notation = "CNC1=N[C@@H]2[C@H](F)[C@H](O)[C@@H](CO)O[C@@H]2S1"
observed = 10.6


(a) OC[C@H]1O[C@@H]2SC(NCCF)=N[C@@H]2[C@@H](O)[C@@H]1O
(b) NC1=N[C@@H]2[C@@H](O)[C@H](O)[C@@H](C(F)F)O[C@@H]2S1
(c) OC[C@H]1O[C@@H]2SC(N3CCC3)=N[C@@H]2[C@@H](O)[C@@H]1O
Arrange these 3 compounds in increasing order of EC50. Your reply should list the labels following the order given in the request. c, a, b
